The reported measurements were obtained from PubChem BioAssay (NCI).

Could you please report measured TGI for the items listed next?
Tested on: MDA-MB-468 breast
assayOverview: NCI tumour cell line growth inhibition, 48 h
Write the value in µM as a bare number.

// query TGI value for entry COC(=O)[C@]12CC[C@@H](C)[C@H](C)[C@@H]1C1=CC[C@@H]3[C@@]4(C)C[C@@H](OC(C)=O)[C@H](OC(C)=O)[C@@](C)(COC(C)=O)[C@@H]4[C@H](O)C[C@@]3(C)[C@]1(C)CC2 46

// query TGI value for entry O=C1c2ccc3c4c(ccc(c24)C(=O)N1CCCCO)C(=O)N(CCCCO)C3=O 3.22

// query TGI value for entry CCCCCCCCCC(=O)Oc1ccc(/C(=C(/C)c2ccccc2)c2ccc(OCCN3CCCC3)cc2)cc1 14.7

// query TGI value for entry CCCCCn1sc(=O)n(Cc2ccc(CNC(=O)C(C)c3ccc(CC(C)C)cc3)cc2)c1=O (stereo not drawn) 2.45

// query TGI value for entry N#Cc1cnn(C(=O)c2nn(-c3ccc(Cl)cc3)cc2O)c1N 15.1

----------
System: MDA-MB-468 breast
assayOverview: NCI tumour cell line growth inhibition, 48 h; in the data active = GI50 below about 0.43 µM; inactive = the rest
# output must be one of 1 for active, -1 for inactive

Give the logged outcome of this assay for the following compound: NS(=O)(=O)c1cccc(Nc2cc(-c3ccc(F)cc3)[nH]n2)c1 -1

Give the logged outcome of this assay for the following compound: COc1cc(C(=O)/C=C/c2c[nH]c3ccccc23)cc(OC)c1OC 1

Give the logged outcome of this assay for the following compound: CNC(=O)c1sc(-n2cnc3cc(OC)c(OC)cc32)cc1OCc1ccccc1C(F)(F)F -1

Give the logged outcome of this assay for the following compound: CO/N=C1\CCc2c(sc(NC(=O)c3cccc(C(F)(F)F)c3)c2C(N)=O)C1 -1

Give the logged outcome of this assay for the following compound: ClC/C=C/CSc1ncnc2nc[nH]c12 -1

Give the logged outcome of this assay for the following compound: CCNC(=O)N1CCc2cc(OC)c(OCCc3ccc(OC)cc3)cc2C1c1ccc([N+](=O)[O-])cc1C (configuration not stated) -1

Give the logged outcome of this assay for the following compound: Cc1cnc(C(=O)Nc2nc3ccc(S(=O)(=O)Nc4ccc(C(C)(C)C)cc4)cc3[nH]2)cn1 1

Give the logged outcome of this assay for the following compound: COC(=O)c1sc(-n2cnc3cc(OC)c(OC)cc32)cc1OCc1ccccc1C(F)(F)F -1

Give the logged outcome of this assay for the following compound: CC(=O)c1ccc(Nc2nc(SC(C)C)nc(-c3ccccc3)c2C#N)cc1 -1

Give the logged outcome of this assay for the following compound: COc1cccc(/C=C\C(=O)c2ccccc2)c1 -1

Give the logged outcome of this assay for the following compound: C#Cc1nc(C2=C(C)/C(=N/OCc3ccccc3)CC2)cs1 -1

Give the logged outcome of this assay for the following compound: COc1ccc([C@@H]2[C@@H](Cl)C(=O)N2c2cc(OC)c(OC)c(OC)c2)cc1C 1

----------
System: MDA-MB-468 breast
assayOverview: NCI tumour cell line growth inhibition, 48 h
Could you please report measured TGI for the items listed next?

// query TGI value for entry CC1CCc2c(C(=O)Nc3ncc(Cc4cccc([N+](=O)[O-])c4)s3)csc2C1 (stereo not drawn) > 100 µM

// query TGI value for entry CC[C@H](C)[C@H](NC(=O)CN(C)C)C(=O)N(C)[C@H](C[C@@H](OC(C)=O)c1nc(C(=O)NC23C4C5C2C2C3C4C52C(=O)OC)cs1)C(C)C (stereo partly drawn) > 33.2 µM

// query TGI value for entry COC(=O)c1sc(-n2cnc3cc(OC)c(OC)cc32)cc1OCc1ccccc1C(F)(F)F > 25 µM
